B1: LINE1-full (parent)
chain: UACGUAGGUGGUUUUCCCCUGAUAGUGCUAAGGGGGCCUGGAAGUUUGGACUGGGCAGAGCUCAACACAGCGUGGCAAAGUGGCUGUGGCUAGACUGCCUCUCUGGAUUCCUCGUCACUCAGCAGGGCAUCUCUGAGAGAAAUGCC

Variants of: B1
METHOD_DESCRIPTION: self-cleavage, relative activity (ratio to wild type); higher = more cleavage; in vitro, sequencing; the parent is a self-cleaving ribozyme
Recorded self-cleavage values for a group of variants are listed next.
Write the value as a bare number.

A69U A138G    0.07
A24G U134C    1.26
U45C A141G    1.37
A50U U108G    1.11
A42G U47C    1.54

Inquiry: Dear colleague, I am looking for the recorded self-cleavage of the following variant: U1A U134C
Reply text: 0.47

Inquiry: Now this one: G88A U134C
Reply text: 0.08

Inquiry: Now this one: G44A G89U
Reply text: 0.02

Inquiry: Now this one: U13C A94C
Reply text: 0.11

Inquiry: Now this one: G35A A92G
Reply text: 0.02
